Where these numbers come from: the NIST ThermoML archive (doi:10.1021/je600568w)

Exercise: state measured mass density for each of the molecules provided.
EXPERIMENTAL PARAMETERS: 298.15 K; 101 kPa; Liquid
Could you give me the number in kg/m3? Just the number is fine.

The molecule identified as C=C(C)C(=O)OCc1ccccc1 [benzyl methacrylate] registered its mass density at 1034.7

The molecule identified as C=C(C)C(=O)O [2-methyl-2-propenoic acid] registered its mass density at 1009.5

The molecule identified as C=C(C)C(=O)OCCO [2-hydroxyethyl 2-methyl-2-propenoate] registered its mass density at 1067.1

The molecule identified as CCOC(=O)C(C)O (racemic) [DL-ethyl lactate] registered its mass density at 1029.1

====

EXPERIMENTAL PARAMETERS: 308.15 K; 101 kPa; Liquid
ENDPOINT LABEL: mass density (kg/m3)
Could you give me the number in kg/m3? Just the number is fine.

The compound identified as CCOC(=O)C(C)O (racemic) [DL-ethyl lactate] registered its mass density at 1018.7

The compound identified as C=C(C)C(=O)O [2-methyl-2-propenoic acid] registered its mass density at 999.4

The compound identified as C=C(C)C(=O)OCCO [2-hydroxyethyl 2-methyl-2-propenoate] registered its mass density at 1057.7

The compound identified as C=C(C)C(=O)OCc1ccccc1 [benzyl methacrylate] registered its mass density at 1025.8

====

Exercise: state measured viscosity for each of the compounds provided.
EXPERIMENTAL PARAMETERS: 318.15 K; 101 kPa; Liquid; Capillary tube (Ostwald / Ubbelohde) method
Numbers after ± are expanded uncertainties.

The compound identified as CCOC(=O)C(C)O (racemic) [DL-ethyl lactate] registered its viscosity at 1.494 ± 0.032 mPa·s

The compound identified as C=C(C)C(=O)OCc1ccccc1 [benzyl methacrylate] registered its viscosity at 1.58 ± 0.036 mPa·s

The compound identified as `C=C(C)C(=O)O` registered its viscosity at 0.945 ± 0.02 mPa·s

The compound identified as C=C(C)C(=O)OCCO [2-hydroxyethyl 2-methyl-2-propenoate] registered its viscosity at 3.181 ± 0.073 mPa·s

====

EXPERIMENTAL PARAMETERS: 298.15 K; 101 kPa; Liquid; Capillary tube (Ostwald / Ubbelohde) method
ENDPOINT LABEL: viscosity (mPa·s)
Could you give me the number in mPa·s? Just the number is fine.

The molecule identified as C=C(C)C(=O)OCCO [2-hydroxyethyl 2-methyl-2-propenoate] registered its viscosity at 5.784

The molecule identified as C=C(C)C(=O)O [2-methyl-2-propenoic acid] registered its viscosity at 1.267

The molecule identified as CCOC(=O)C(C)O (racemic) [DL-ethyl lactate] registered its viscosity at 2.398

The molecule identified as C=C(C)C(=O)OCc1ccccc1 [benzyl methacrylate] registered its viscosity at 2.302

====

Exercise: state measured viscosity for each of the molecules provided.
EXPERIMENTAL PARAMETERS: 308.15 K; 101 kPa; Liquid; Capillary tube (Ostwald / Ubbelohde) method
Could you give me the number in mPa·s? Just the number is fine.

The molecule identified as CCOC(=O)C(C)O (racemic) [DL-ethyl lactate] registered its viscosity at 1.863

The molecule identified as `C=C(C)C(=O)O` registered its viscosity at 1.078

The molecule identified as C=C(C)C(=O)OCCO [2-hydroxyethyl 2-methyl-2-propenoate] registered its viscosity at 4.194

The molecule identified as C=C(C)C(=O)OCc1ccccc1 [benzyl methacrylate] registered its viscosity at 1.885

====

Exercise: state measured mass density for each of the compounds provided.
EXPERIMENTAL PARAMETERS: 318.15 K; 101 kPa; Liquid
± gives the expanded uncertainty stated by the source.
Show the value, then the unit it is measured in.

The compound identified as C=C(C)C(=O)OCCO [2-hydroxyethyl 2-methyl-2-propenoate] registered its mass density at 1048.6 ± 2.6 kg/m3

The compound identified as CCOC(=O)C(C)O (racemic) [DL-ethyl lactate] registered its mass density at 1007.5 ± 2.3 kg/m3

The compound identified as C=C(C)C(=O)OCc1ccccc1 [benzyl methacrylate] registered its mass density at 1017 ± 2.5 kg/m3

The compound identified as `C=C(C)C(=O)O` registered its mass density at 989.2 ± 2.2 kg/m3
